# system-under-test: Cytochrome P450 2D4 (Rattus norvegicus)
# Sequence (Q64680 whole entry): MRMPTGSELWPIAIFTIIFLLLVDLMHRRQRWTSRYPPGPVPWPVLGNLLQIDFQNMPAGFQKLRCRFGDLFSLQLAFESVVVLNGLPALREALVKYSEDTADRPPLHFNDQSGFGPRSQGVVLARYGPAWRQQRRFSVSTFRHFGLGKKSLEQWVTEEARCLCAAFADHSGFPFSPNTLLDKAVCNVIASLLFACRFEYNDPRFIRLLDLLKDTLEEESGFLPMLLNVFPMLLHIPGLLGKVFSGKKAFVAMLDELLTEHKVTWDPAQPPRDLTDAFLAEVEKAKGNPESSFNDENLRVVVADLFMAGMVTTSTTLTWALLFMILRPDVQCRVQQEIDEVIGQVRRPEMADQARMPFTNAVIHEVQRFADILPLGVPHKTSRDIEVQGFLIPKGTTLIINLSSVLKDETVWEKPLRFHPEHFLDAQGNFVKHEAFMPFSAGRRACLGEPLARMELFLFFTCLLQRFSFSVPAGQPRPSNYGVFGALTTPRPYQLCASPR
# experimental-protocol: Inhibition of rat CYP2D4 measured after concurrent incubation
# Assay type: ADME

[
  {
    "query-smiles": "Cc1cc2c(-c3ccc[nH]c3=O)c(C(=O)O)n(Cc3cc4ccccc4nc3Cl)c2cc1F",
    "IC50": "> 50 µM"
  }
]

###

# experimental-protocol: AUC in fed Sprague-Dawley rat at 500 mg/kg, po
# Format: ADME, organism-based
# Parameters: dose 500 mg/kg, route oral
# study-conditions: plasma
quantity-name: AUC (µM·h)

[
  {
    "query-smiles": "Cc1cc2c(-c3ccc[nH]c3=O)c(C(=O)O)n(Cc3cc4ccccc4nc3Cl)c2cc1F",
    "observed-measurement": 1040
  }
]

###

# system-under-test: UniProtKB P05177
# Sequence (P05177 whole entry): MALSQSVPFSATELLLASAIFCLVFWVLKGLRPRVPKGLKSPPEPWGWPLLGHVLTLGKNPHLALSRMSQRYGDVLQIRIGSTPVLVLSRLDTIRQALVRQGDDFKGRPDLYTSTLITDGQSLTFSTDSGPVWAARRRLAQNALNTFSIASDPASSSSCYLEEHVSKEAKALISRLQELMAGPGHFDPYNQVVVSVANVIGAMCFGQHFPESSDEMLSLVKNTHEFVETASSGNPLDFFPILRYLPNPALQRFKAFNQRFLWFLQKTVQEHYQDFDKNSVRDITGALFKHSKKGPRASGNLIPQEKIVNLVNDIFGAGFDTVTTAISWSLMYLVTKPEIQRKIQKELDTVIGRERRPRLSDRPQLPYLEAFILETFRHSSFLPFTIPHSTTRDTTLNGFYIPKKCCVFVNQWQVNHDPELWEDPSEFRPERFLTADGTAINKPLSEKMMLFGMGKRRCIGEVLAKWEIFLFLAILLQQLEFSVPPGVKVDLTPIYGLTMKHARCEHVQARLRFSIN
# experimental-protocol: Inhibition of CYP1A2 in human liver microsomes measured after compound pre-incubation
# Assay type: ADME
pIC50: −log10 of the molar value.

[
  {
    "query-smiles": "Cc1cc2c(-c3ccc[nH]c3=O)c(C(=O)O)n(Cc3cc4ccccc4nc3Cl)c2cc1F",
    "pIC50": "< 4.30"
  }
]

###

# system-under-test: Cytochrome P450 2C19 (Homo sapiens)
# experimental-protocol: Inhibition of […] in human liver microsomes measured after compound pre-incubation
# Type: ADME
quantity-name: IC50

[
  {
    "query-smiles": "Cc1cc2c(-c3ccc[nH]c3=O)c(C(=O)O)n(Cc3cc4ccccc4nc3Cl)c2cc1F",
    "quantity-name": "IC50",
    "observed-measurement": "> 50 µM"
  }
]

###

# experimental-protocol: Clearance in Sprague-Dawley rat
# Type: ADME, organism-based
# study-conditions: in vivo

[
  {
    "query-smiles": "Cc1cc2c(-c3ccc[nH]c3=O)c(C(=O)[O-])n(Cc3cc4ccccc4nc3Cl)c2cc1F.[Na+]",
    "endpoint-unit": "mL/min/kg",
    "clearance": 1.5
  }
]

###

# experimental-protocol: Ratio of drug uptake in liver to plasma of Sprague-Dawley rat at 10 mg/kg, po
# Assay type: ADME, organism-based
# Parameters: dose 10 mg/kg, route oral
quantity-name: Kp

[
  {
    "query-smiles": "Cc1cc2c(-c3ccc[nH]c3=O)c(C(=O)[O-])n(Cc3cc4ccccc4nc3Cl)c2cc1F.[Na+]",
    "quantity-name": "Kp",
    "observed-measurement": 0.4
  }
]

###

# system-under-test: Cytochrome P450 2C19 (Homo sapiens, UniProt P33261)
# Sequence (P33261 whole entry): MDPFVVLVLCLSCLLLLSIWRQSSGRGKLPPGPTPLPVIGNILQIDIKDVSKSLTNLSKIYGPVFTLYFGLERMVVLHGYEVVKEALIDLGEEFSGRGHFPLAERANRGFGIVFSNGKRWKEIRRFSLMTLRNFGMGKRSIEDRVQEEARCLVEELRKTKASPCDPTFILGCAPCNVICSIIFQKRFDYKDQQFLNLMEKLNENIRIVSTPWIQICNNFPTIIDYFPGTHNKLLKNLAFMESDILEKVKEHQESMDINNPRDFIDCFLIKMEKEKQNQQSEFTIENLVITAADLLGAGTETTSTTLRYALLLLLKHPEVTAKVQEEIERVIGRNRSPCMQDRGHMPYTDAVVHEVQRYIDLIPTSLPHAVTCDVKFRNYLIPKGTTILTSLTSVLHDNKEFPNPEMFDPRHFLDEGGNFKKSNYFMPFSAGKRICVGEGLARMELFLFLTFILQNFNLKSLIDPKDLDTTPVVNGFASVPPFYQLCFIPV
# experimental-protocol: Inhibition of […] in human liver microsomes measured after concurrent incubation
# Assay type: ADME

[
  {
    "query-smiles": "Cc1cc2c(-c3ccc[nH]c3=O)c(C(=O)O)n(Cc3cc4ccccc4nc3Cl)c2cc1F",
    "IC50": "> 50 µM"
  }
]

###

# system-under-test: UniProtKB P10635
# Sequence (P10635 whole entry): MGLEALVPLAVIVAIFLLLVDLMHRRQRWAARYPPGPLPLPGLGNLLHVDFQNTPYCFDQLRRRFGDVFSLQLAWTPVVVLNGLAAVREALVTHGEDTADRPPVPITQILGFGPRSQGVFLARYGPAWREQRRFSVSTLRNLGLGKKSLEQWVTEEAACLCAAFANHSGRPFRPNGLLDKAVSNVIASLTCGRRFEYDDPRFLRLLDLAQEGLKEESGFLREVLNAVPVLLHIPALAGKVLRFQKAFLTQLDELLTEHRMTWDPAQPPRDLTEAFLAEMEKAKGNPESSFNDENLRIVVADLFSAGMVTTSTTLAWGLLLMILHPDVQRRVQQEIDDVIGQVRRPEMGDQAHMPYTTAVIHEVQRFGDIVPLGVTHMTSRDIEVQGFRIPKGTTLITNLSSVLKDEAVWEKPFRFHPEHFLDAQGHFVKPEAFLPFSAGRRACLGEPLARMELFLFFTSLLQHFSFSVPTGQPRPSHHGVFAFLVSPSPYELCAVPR
# experimental-protocol: Inhibition of CYP2D6 in human liver microsomes measured after concurrent incubation
# Format: ADME
pIC50: −log10 of the molar value.
quantity-name: pIC50

[
  {
    "query-smiles": "Cc1cc2c(-c3ccc[nH]c3=O)c(C(=O)O)n(Cc3cc4ccccc4nc3Cl)c2cc1F",
    "system-under-test": "UniProtKB P10635",
    "observed-measurement": "< 4.30"
  }
]

###

# experimental-protocol: Oral bioavailability in Sprague-Dawley rat at 10 mg/kg
# Assay type: ADME, organism-based
# study-conditions: in vivo

[
  {
    "query-smiles": "Cc1cc2c(-c3ccc[nH]c3=O)c(C(=O)[O-])n(Cc3cc4ccccc4nc3Cl)c2cc1F.[Na+]",
    "bioavailability [%]": 14
  }
]
